biological target: TGF-beta1 (hTGF-beta1) (Homo sapiens, UniProt P01137 P01137:279-390); assay: filter; biphasic; Kd1 3.8±0.9 nM; conditions: tags: R&D Systems; biotinylated form (NFTG0) used for BIAcore; chain copies: 2
Sequence (P01137 279-390, one chain of several): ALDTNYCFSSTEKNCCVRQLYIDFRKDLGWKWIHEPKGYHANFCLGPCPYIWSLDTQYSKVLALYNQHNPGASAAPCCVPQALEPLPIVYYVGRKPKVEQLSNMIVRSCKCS
MEASUREMENT NAME: Kd
Please state the value followed by its unit.

Exercise: Value lookup for Kd; key = 40-41 (ssRNA, 2'-F C and U) RNA: GGGAGGACGAUGCGGUGCCUUUAGCCUGAGUAUACUGAUGUAUAUUCUCUGCCGCAGACGACUCGCCCGA
Solution: 1.4 pM
